Tested on: HL-60(TB) leukemia
Assay: NCI tumour cell line growth inhibition, 48 h
endpoint-label: TGI (µM)
Give just the numeric value; µM need not be written.

Data request: For HL-60(TB) leukemia, provide TGI of CCN1CCN(c2ccc(NC(=O)Nc3ccc4c(ccn4-c4ccnc(C(=O)NC)c4)c3)cc2C(F)(F)F)CC1 please.
Data returned: 6.11

***
Data request: For HL-60(TB) leukemia, provide TGI of Oc1ccc(CSc2nnc(-c3ccccc3)n2-c2ccccc2)c2cccnc12 please.
Data returned: 6.91

Data request: For HL-60(TB) leukemia, provide TGI of CN1CCN(c2ccc(NC(=O)Nc3ccc4c(ccn4-c4cccc(C(N)=O)n4)c3)cc2C(F)(F)F)CC1 please.
Data returned: 13.5
